# target.under.test: Poly [ADP-ribose] polymerase 1 (Homo sapiens, UniProt P09874)
# Sequence (P09874 whole entry): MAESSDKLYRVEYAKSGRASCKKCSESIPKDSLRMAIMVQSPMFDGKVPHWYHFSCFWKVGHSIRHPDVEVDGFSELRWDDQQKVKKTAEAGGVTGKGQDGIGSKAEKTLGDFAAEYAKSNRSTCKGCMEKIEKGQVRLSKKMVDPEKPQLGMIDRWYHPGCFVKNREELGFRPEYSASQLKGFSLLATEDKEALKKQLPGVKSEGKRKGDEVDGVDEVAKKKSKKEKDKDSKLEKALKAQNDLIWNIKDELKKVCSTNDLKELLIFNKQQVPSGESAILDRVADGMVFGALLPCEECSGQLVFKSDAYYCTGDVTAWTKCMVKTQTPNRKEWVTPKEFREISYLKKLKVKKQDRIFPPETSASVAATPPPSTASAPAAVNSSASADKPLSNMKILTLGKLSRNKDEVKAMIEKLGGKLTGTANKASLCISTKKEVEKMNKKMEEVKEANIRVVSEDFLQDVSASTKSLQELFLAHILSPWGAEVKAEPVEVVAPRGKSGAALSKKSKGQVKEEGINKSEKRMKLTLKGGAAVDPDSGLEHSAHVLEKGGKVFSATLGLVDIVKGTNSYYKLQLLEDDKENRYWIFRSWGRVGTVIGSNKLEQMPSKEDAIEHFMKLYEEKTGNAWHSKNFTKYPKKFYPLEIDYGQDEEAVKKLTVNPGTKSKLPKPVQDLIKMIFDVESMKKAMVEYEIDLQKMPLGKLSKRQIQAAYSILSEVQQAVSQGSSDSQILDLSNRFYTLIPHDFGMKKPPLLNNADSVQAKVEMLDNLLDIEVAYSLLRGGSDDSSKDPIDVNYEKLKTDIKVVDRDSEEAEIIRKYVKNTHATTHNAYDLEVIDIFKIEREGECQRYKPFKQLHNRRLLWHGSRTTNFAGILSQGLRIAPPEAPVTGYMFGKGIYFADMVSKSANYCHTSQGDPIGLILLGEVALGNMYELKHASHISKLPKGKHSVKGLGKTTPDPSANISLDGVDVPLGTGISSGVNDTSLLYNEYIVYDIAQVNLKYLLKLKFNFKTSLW
# test.protocol: Inhibition of PARP1
value.kind: pIC50
Expect pIC50 as a plain number equal to -log10 of the molar concentration.

>>> reported_result("NC(=O)c1ccccc1OCc1cccc(C(=O)N2CCN(C(=O)C3CCCC3)CC2)c1")
6.73
>>> reported_result("O=C(c1cccc(Cc2n[nH]c(=O)c3ccccc23)c1)N1CCN(C(=O)C2CCCC2)CC1")
8.10
>>> reported_result("CC(Oc1ccccc1)C(=O)N1CCN(C(=O)c2cc(COc3ccc(F)cc3C(N)=O)ccc2F)CC1 (centres undefined)")
7.85
>>> reported_result("NC(=O)c1cc(F)c(F)cc1OCc1ccc(F)c(C(=O)N2CCNCC2)c1")
6.62
>>> reported_result("NC(=O)c1ccccc1OCCc1cccc(C(=O)N2CCNCC2)c1")
6.01

Q: pIC50 lookup needed for NC(=O)c1ccccc1OCc1ccc(F)c(C(=O)N2CCNCC2)c1 , thanks.
A: 7.21

Q: So what does the record say about pIC50 for O=C(c1cccc(Cc2n[nH]c(=O)c3ccccc23)c1)N1CCNCC1 ?
A: 8.70

Q: Recorded pIC50 of NC(=O)c1ccccc1OCc1cccc(C(=O)N2CCNCC2)c1 , please.
A: 7.74

Q: Tell me the measured pIC50 of CC(Oc1ccccc1)C(=O)N1CCN(C(=O)c2cccc(Cc3n[nH]c(=O)c4ccccc34)c2)CC1 (centres undefined) , please.
A: 8.30
